Hey, just so you know, these numbers are from ChEMBL document CHEMBL1201862.

test system: SK-MEL-2; experiment: NCI tumour cell line growth inhibition, 48 h
The source made the active and inactive calls. No stated cut-off is given here; in the data, active = GI50 up to about 1.1 µM and inactive = higher.
Answer each item with its documented GI50.

# count of solved cases: 10
> print(dat)
                                    compound  target.entity       measured.value
 1    O=C1OC(c2ccccc2)=N/C1=C\c1ccc2ccccc2c1       SK-MEL-2  > 100 µM (inactive)
 2      CN/C(=N\N)NS(=O)(=O)c1cc(C)c(Cl)cc1S       SK-MEL-2   69.2 µM (inactive)
 3  Cc1cc(S(=O)(=O)NC2=Nc3cccc4cccc(c34)N2)c(S)cc1Cl       SK-MEL-2  > 100 µM (inactive)
 4  Cc1ccc(S(=O)(=O)Nc2nc3ccccc3c(=O)n2C2CCCCC2)cc1       SK-MEL-2  > 100 µM (inactive)
 5  Clc1nc(Nc2nc3ccccc3[nH]2)nc(Cl)c1-c1ccccc1       SK-MEL-2   23.3 µM (inactive)
 6  C1=Cc2nc1c(-c1ccccc1)c1nc(c(-c3ccccc3)c3ccc([nH]3)c(-c3ccccc3)c3ccc([nH]3)c2-c2ccccc2)C=C1 [TETRAPHENYLPORPHYRIN]       SK-MEL-2  > 100 µM (inactive)
 7                CCNCCNc1c2ccccc2nc2ccccc12       SK-MEL-2   1.51 µM (inactive)
 8  COc1ccccc1CNC(=O)[C@H](Cc1ccc(O)cn1)NC(C)=O       SK-MEL-2  > 100 µM (inactive)
 9  CC12CCCC3(CC(=O)C(C)(C)C3C(=O)C1)C2 (stereo unspecified)       SK-MEL-2  > 100 µM (inactive)
10     O=[N+]([O-])c1cccnc1S(=O)(=O)c1ccccc1       SK-MEL-2   16.2 µM (inactive)

// input: 6 compounds below; output: GI50 for each
1. CC(C)OP(=S)(NC(=S)c1ccccc1)OC(C)C
2. CC(C)/C=C1\CCC(CN(C)C)C1=O (stereo unspecified)
3. O=C1/C(=C\c2ccccc2)C2/C(=C\c3ccccc3)C(=O)/C(=C\c3ccccc3)C2/C1=C\c1ccccc1 (stereo unspecified)
4. Cc1c2ccncc2c(C)c2c1[nH]c1ccc(Cl)cc12
5. CNC(=O)NCCCC(NC(C)=O)C(=O)NCc1ccccc1 (stereo unspecified)
6. COc1nc2sc3c(c2c(=O)n1CCCSSCCCn1c(OC)nc2sc4c(c2c1=O)CCCC4)CCCC3

Reply |
1: > 100 µM (inactive); 2: 7.05 µM (inactive); 3: 1.81 µM (inactive); 4: 3.51 µM (inactive); 5: > 100 µM (inactive); 6: > 100 µM (inactive)
